Listed here: items and their measured kon.
- Target Entity: T1, TP-51 peptide (human)
- T1 construct: Synthetic peptide from Pepscan; also called synthetic TDP-43 peptide (TP-51)
- T1 peptide: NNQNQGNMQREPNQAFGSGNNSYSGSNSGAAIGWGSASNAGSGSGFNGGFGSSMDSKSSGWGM
- Measurement Notes: SPR Biacore 8K, mAb captured by anti-human antibody, TP-51 injected, single-cycle kinetics
Numbers only; they are read as M⁻¹ s⁻¹.

Consider the following illustrative entries.
# query: kon of entry hACI-7069-633B12-Ab1_H32L27 (antibody, V domains shown) VH: EVQLVQSGAEVKKPGATVKISCKVSGFTFTEYSMHWVQQAPGKGLEWMGGINPQNAGTSYNQKFQGRVTITADTSTDTAYMELSSLRSEDTAVYYCARESWGQGTTVTVSS VL: DIVMTQSPLSLPVTPGEPASISCKSSQSLLHSDGKTYLNWLLQKPGQSPQRLIYLVSKLDSRVPDRFSGSGSGTDFTLKISRVEAEDVGVYYCFQGTHFPHTFGQGTKLEIK 120000

# query: kon of entry hACI-7069-633B12-Ab1_H28L24 (antibody, V domains shown) VH: EVQLVQSGAEVKKPGATVKISCKVSGFTFTEYSMHWVQQAPGKGLEWMGGINPNNGGTSYNQKFKGRVTITADTSTDTAYMELSSLRSEDTAVYYCARESWGQGTTVTVSS VL: DIVMTQSPLSLPVTPGEPASISCKSSQSLLHSDGKTYLNWLLQKPGQSPQRLIYLVSKLDSRVPDRFSGSGSGTDFTLKISRVEAEDVGVYYCWQGTHFPHTFGQGTKLEIK 66000

Moving on to the next binder.
# query: kon of entry hACI-7069-633B12-Ab1_H33L24 (antibody, V domains shown) VH: EVQLVQSGAEVKKPGATVKISCKVSGFTFTEYSMHWVQQAPGKGLEWMGGINPNNGGTSYNQKFQGRVTITADTSTDTAYMELSSLRSEDTAVYYCARESWGQGTTVTVSS VL: DIVMTQSPLSLPVTPGEPASISCKSSQSLLHSDGKTYLNWLLQKPGQSPQRLIYLVSKLDSRVPDRFSGSGSGTDFTLKISRVEAEDVGVYYCWQGTHFPHTFGQGTKLEIK 70000
